Origin of the recorded values: patent US20180009871A1

- TARGET SYSTEM: human GLP-1 receptor (GLP-1R) (human, UniProt P43220 24-463)
- Sequence (P43220 24-463): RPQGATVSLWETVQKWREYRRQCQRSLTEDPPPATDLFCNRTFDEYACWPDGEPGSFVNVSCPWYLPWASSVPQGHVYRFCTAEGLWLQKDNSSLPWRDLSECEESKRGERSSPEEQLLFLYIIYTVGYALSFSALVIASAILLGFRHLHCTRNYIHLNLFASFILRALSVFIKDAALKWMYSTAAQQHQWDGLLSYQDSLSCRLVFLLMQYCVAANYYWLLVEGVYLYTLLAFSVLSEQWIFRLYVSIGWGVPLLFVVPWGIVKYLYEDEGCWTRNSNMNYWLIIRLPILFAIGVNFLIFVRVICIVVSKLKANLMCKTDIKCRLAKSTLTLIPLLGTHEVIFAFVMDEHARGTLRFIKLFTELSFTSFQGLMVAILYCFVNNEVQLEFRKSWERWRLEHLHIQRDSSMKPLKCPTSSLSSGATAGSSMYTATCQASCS
- ASSAY COMMENT: cell-based or functional assay
Where no end group is shown, it is not given here. [ ]: non-standard residue; d: D form. Aib = CC(C)(N)C(=O)O
QUANTITY KIND: hGLP1 pEC50 (cAMP)

{"BINDER": "WSQGTFTSDYSKYLD[Aib]KAAQEFV[Aib]WLEDEPSSGAPPPS [Compound A92]", "ENDPOINT VALUE": "< 9 pEC50"}
{"BINDER": "YSHGTFTSDYSKYLDSARAQEFTKWLEDEPKSKSPPPS [Compound A83]", "ENDPOINT VALUE": "< 9 pEC50"}
{"BINDER": "YSHGTFTSDYSKYLD[Aib]KRAQEFV[Aib]WLEDEKSSGKPPPS [Compound A87]", "ENDPOINT VALUE": "< 9 pEC50"}
{"BINDER": "WSQGTFTSDYSKYLD[Aib]KAAQEFV[Aib]WLEDEPSSGKPPPS [Compound A93]", "ENDPOINT VALUE": "< 9 pEC50"}
{"BINDER": "YSQGTFTSDYSKYLD[Aib]KAAQEFV[Aib]WLEDEPSSGAPPPS [Compound A95]", "ENDPOINT VALUE": "< 9 pEC50"}
{"BINDER": "YSHGTFTSDYSKYLD[Aib]KAAQEFV[Aib]WLEDEPSSGKPPPS [Compound A90]", "ENDPOINT VALUE": "< 9 pEC50"}
